compounds and their reported z-score of subpopulation abundance
System: Saccharomyces cerevisiae BY4741 SeMeCo community
ASSAY NOTES: z-score of subpopulation abundance vs DMSO median, subpopulation auxotrophic for HM; higher = larger share of this subpopulation than in DMSO controls
MEASUREMENT SETUP: 10 µM; 24 h; SM minimal medium; subpopulation (auxotrophy): HM

# input I'd like to know its z-score of subpopulation abundance. The compound in question is CC(=O)OC1CC2(C)C(CC(O)C3C4(C)CCC(O)C(C)C4CCC32C)C1=C(CCC=C(C)C)C(=O)O (centres undefined) [Fusidine]
# output 1.19

# input I'd like to know its z-score of subpopulation abundance. The compound in question is NC(=NCCCCCCN=C(N)N=C(N)Nc1ccc(Cl)cc1)N=C(N)Nc1ccc(Cl)cc1 [Chlorhexidine?2HCl]
# output -2.23

# input I'd like to know its z-score of subpopulation abundance. The compound in question is CC[C@H](C)C(=O)O[C@H]1C[C@@H](C)C=C2C=C[C@H](C)[C@H](CC[C@@H]3C[C@@H](O)CC(=O)O3)[C@H]21 [Lovastatin]
# output 0.4

# input for lookup
# input I'd like to know its z-score of subpopulation abundance. The compound in question is CC[C@@]1(O)C(=O)OCc2c1cc1n(c2=O)Cc2cc3cc(O)ccc3nc2-1 [(S)-10-Hydroxycamptothecin]
# output 0.81

* * *

Test system: Saccharomyces cerevisiae BY4741 SeMeCo community
ASSAY NOTES: z-score of subpopulation abundance vs DMSO median, subpopulation auxotrophic for UM; higher = larger share of this subpopulation than in DMSO controls
MEASUREMENT SETUP: 10 µM; 24 h; SM minimal medium; subpopulation (auxotrophy): UM
Structures can show the parent of a compound that is named as a salt.
METRIC NAME: z-score of subpopulation abundance

# input I'd like to know its z-score of subpopulation abundance. The molecule in question is Cc1[nH]c(=O)c(C#N)cc1-c1ccncc1
# output -0.1

# input I'd like to know its z-score of subpopulation abundance. The molecule in question is CC[C@@]1(O)C(=O)OCc2c1cc1n(c2=O)Cc2cc3cc(O)ccc3nc2-1 [(S)-10-Hydroxycamptothecin]
# output -0.98

# input I'd like to know its z-score of subpopulation abundance. The molecule in question is Cc1ccc(C(=O)C(C)CN2CCCCC2)cc1 (stereo not given) [Tolperisone HCl]
# output -0.03

# input I'd like to know its z-score of subpopulation abundance. The molecule in question is CC[C@@]1(O)C(=O)OCc2c1cc1n(c2=O)Cc2cc3cc(O)ccc3nc2-1 [Hydroxy Camptothecine]
# output -4.43

# input I'd like to know its z-score of subpopulation abundance. The molecule in question is CN1C(C(=O)Nc2ccccn2)=C(O)c2sc(Cl)cc2S1(=O)=O
# output 0.21

# input I'd like to know its z-score of subpopulation abundance. The molecule in question is CCCCC(=O)O[C@H]1CC[C@H]2[C@@H]3CCc4cc(O)ccc4[C@H]3CC[C@]12C [Estradiol valerate]
# output 0

# input I'd like to know its z-score of subpopulation abundance. The molecule in question is CN[C@@H]1[C@@H](O[C@H]2O[C@H](CO)[C@@H](N)[C@H](O)[C@H]2O)OC2C[C@@H](N)[C@@H](O[C@H]3[C@H](O)[C@@H](O)[C@H](N)C[C@@H]3N)OC2[C@@H]1O (stereo not given in full) [Apramycin Sulfate]
# output 0.56

# input I'd like to know its z-score of subpopulation abundance. The molecule in question is CCc1cccc2c3c([nH]c12)C(CC)(CC(=O)O)OCC3 (stereo not given)
# output -0.43

# input I'd like to know its z-score of subpopulation abundance. The molecule in question is CCc1c2c(nc3ccc(OC(=O)N4CCC(N5CCCCC5)CC4)cc13)-c1cc3c(c(=O)n1C2)COC(=O)[C@]3(O)CC [Irinotecan HCl Trihydrate]
# output -0.07
